Below, each entry is listed with its recorded % Lysis Ramos 1 µg/ml ADCC.
Target: T1, human CD20 (human, UniProt P11836 1-297)
T1 sequence (looked up): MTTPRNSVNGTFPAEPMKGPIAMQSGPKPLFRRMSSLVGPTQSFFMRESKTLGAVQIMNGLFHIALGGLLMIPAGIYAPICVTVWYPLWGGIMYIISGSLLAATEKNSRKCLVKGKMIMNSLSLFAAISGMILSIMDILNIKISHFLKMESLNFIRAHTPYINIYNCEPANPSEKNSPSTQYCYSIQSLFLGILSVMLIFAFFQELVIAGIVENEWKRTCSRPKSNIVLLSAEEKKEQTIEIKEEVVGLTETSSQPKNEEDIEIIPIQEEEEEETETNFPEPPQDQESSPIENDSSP
Experiment: cell-based or functional assay
Return type: number; implicit unit %.

BINDER	% Lysis Ramos 1 µg/ml ADCC [%]
mAb 2.1.2 (ATCC Accession Number PTA-7328) (antibody, human IgG1, V domains shown, Human IgG1 kappa; also called 2.1.1; 50-001H2_1_1) VH: EVQLVQSGAEVKKPGESLKISCKGSGYSFTSYWIGWVRQMPGKGLEWMGIIYPGDSDTRYSPSFQGQVTISADKSISTAYLQWSSLKASDTAMYYCARQGDFWSGYGGMDVWGQGTTVTVSS VL: DIVMTQTPHSSPVTLGQPASISCRSSQSLVSRDGNTYLSWLQQRPGQPPRLLIYKISNRFSGVPNRFSGSGAGTDFTLKISRVKAEDVGVYYCMQATQFPLTFGQGTRLEIK	23
mAb 1.12.3 (antibody, human IgG1, V domains shown) VH: EVQLVQSGAEVKKPGESLKISCKGSGYSFTSYWIGWVRQMSGKGLEWMGIIYPGDSDTRYSPSFQGQVTISADKSISTAYLQWSSLKASDTAIYYCARHPSYGSGSPNFDYWGQGTLVTVSS VL: DIVMTQTPLSSPVTLGQPASISCRSSQSLVYSDGNTYLSWLQQRPGQPPRLLFYKISNRFSGVPDRFSGSGAGTDFTLKISRVEAEDVGVYYCVQATQFPLTFGGGTKVEIK	29
mAb 1.2.1 (antibody, human IgG1, V domains shown, Human IgG1 kappa; also called 1.2.1.1; 50-001H1_2_1_1) VH: EVQLVQSGAEVKKPGESLKISCKGSGYSFTSYWIGWVRQMPGKGLEWMGIIYPGDSDTRYSPSFQGQVTISADKSISTAYLQWSSLKASDTAMYYCARLGDYYNYYGMDVWGQGTTVTVSS VL: DIVMTQTPLSSPVTLGQPASISCRSSQSLVHSDGKTYLSWLQQRPGQPPRLLIYKSSNRFSGVPDRFSGSGAGTDFTLKISRVEAEDVGVYYCVQATQFPITFGQGTRLEIK	67

Below: the item to evaluate.
Inquiry: Give the measured % Lysis Ramos 1 µg/ml ADCC of mAb 1.13.2 (antibody, human IgG1, V domains shown, Human IgG1 kappa; also called 1.13.1; 50-001H1_13_1) VH: EVQLVQSGAEVKKPGESLKISCKGSGYSFTNYWIGWVRQMPGKGLEWMGIIYPGDSDTRYSPSFQGQVTISADKSISTAYLQWSSLKASDTAMYYCARQGDYYHYSGMDVWGQGTTVTVSS VL: DVVMTQSPLSLSVTLGQPASISCRSSQSLVYNDGDTYLNWFQQRPGQSPRLLIYKVSNWDSGVPDRFSGSGSGTDFTLKVSRVEAEDVGVYYCMQGTHWPLTFGGGTKVEIK .
Reply text: 33
